- Experiment: Mouse brain uptake study after i.p. injection
- Type: in vivo
- Settings: mouse, plasma, ip, 4.3 mg/kg
Measurement Label: Tmax (min)
Reply numerically in min, unit not repeated.

Qu. Quick check: Tmax of COC(=O)N(CCO[C@H]1CNC[C@H]1Cc1cc(C)cc(N)n1)CCc1cccc(F)c1 (racemic) ?
Ans. 5
